// data source = ChEMBL document CHEMBL1201862

system: COLO 205; assay: NCI tumour cell line growth inhibition, 48 h
Active and inactive are the calls of the source. No stated cut-off is given here; in the data, active = GI50 up to about 1.1 µM and inactive = higher.
Please provide measured GI50 for the entries that follow.

The following compounds have reported results that may help.
1. O=C1c2ccccc2C(=O)c2sc(Nc3ccccc3Cl)nc21 = 14.6 µM (inactive)
2. C#Cc1ccccc1C(=O)OC = > 100 µM (inactive)

For every listed record, write down its GI50.
1. CC(C)(C)c1cc(CC2C(=O)c3ccccc3C2=O)cc(C(C)(C)C)c1O
2. CSc1c(C(=O)Nc2ccc(C)cc2)c(N)nn1-c1ccccc1
3. CCCC1CCC(=C2C(=O)CCC2=O)O1 (configuration not stated)
4. COC1CC(C)(N)C(O)C(C)O1 (configuration not stated)

### Response
1: 3.6 µM (inactive); 2: > 100 µM (inactive); 3: > 100 µM (inactive); 4: > 100 µM (inactive)

Measured GI50 (COLO 205), entry Cc1ncc(CBr)c(CBr)c1O : > 100 µM (inactive)

----------
tested on: 786-0; assay: NCI tumour cell line growth inhibition, 48 h
Activity calls are given as the source filed them. Rule as the data show it: active = GI50 up to about 1.1 µM and inactive = higher.
Please provide measured GI50 for the entries that follow.

The following molecules have reported results that may help.
1) N#Cc1ccc(Oc2nc3ccc(C(F)(F)F)cc3nc2-c2ccccc2)cc1 = 17.1 µM (inactive)
2) COc1ccc(OC)c(CCc2cc(OC)ccc2OC)c1 = 3.17 µM (inactive)
3) O=C(c1ccccc1)c1nnn(Cc2cccc(Cl)c2)c1C(=O)c1ccccc1 = > 100 µM (inactive)

For every listed record, write down its GI50.
1. COc1ccc(C2C(C=O)C(N3CCN(C)CC3)=Nc3nc4ccccc4n32)cc1 (stereo not given)
2. COC(=O)/C(C)=C/[N+](=O)[O-]

### Response
1. 20 µM (inactive)
2. 17.7 µM (inactive)

----------
test system: T47D; experiment: NCI tumour cell line growth inhibition, 48 h
Active and inactive are the calls of the source. No stated cut-off is given here; in the data, active = GI50 up to about 1.1 µM and inactive = higher. Where a SMILES comes first, the peptide text is derived from it. The star is where a group is joined. Boc = CC(C)(C)OC(=O)*
Please provide measured GI50 for the entries that follow.

1. Cc1ccc([N+](=O)[O-])cc1S(=O)(=O)Nc1ccc(C2=NOC(c3ccccc3)C2)cc1 (stereo unspecified) = 5.77 µM (inactive)
2. CC(NC(=O)C1CCCN1C(=O)CNC(=O)OC(C)(C)C)C(=O)O (stereo not drawn) (Boc-Gly-Pro-Ala-OH; configuration not given here) = > 100 µM (inactive)
3. CN(C)CCNc1ccc(CO)c2sc3ccc(O)cc3c(=O)c12 = 1.91 µM (inactive)

For every listed record, write down its GI50.
1. CCOP(=O)(OCC)/C(=C\n1ccc(=O)[nH]c1=S)C(=O)OC
2. CCOC(=O)[C@@]12C[C@](/C=C/OC)(O[Si](C)(C)C)[C@@]13c1cc(OC)c(OC)cc1CCN3C(=O)C2=O

### Response
1: > 100 µM (inactive); 2: > 100 µM (inactive)

For every listed record, write down its GI50.
1. Cc1ccc(C2=Nn3c(nc4sc(C)c(C)c4c3=O)SC2)cc1
2. CCN(CC)c1ccc(/C=C/c2ccnc3ccccc23)cc1
3. O=C1CS(=O)(=O)C(c2cccc(Oc3ccccc3)c2)N1c1ccccc1 (stereo unspecified)
4. O=S(=O)(O)c1ccc(Nc2ccnc3ccccc23)cc1
5. O=C1C=CC[C@H](/C=C/C[C@@H](O)C[C@H](O)/C=C/c2ccccc2)O1
6. CCOC(=O)C(=[N+]=[N-])C(=O)CSC#N

### Response
1: > 100 µM (inactive); 2: > 100 µM (inactive); 3: 15.3 µM (inactive); 4: > 100 µM (inactive); 5: 14.3 µM (inactive); 6: > 100 µM (inactive)
